# Tested on: A. fumigatus
# assay.summary: Antifungal activity: Minimum Inhibitory Concentration
# Format: cell-based, Aspergillus fimigatus (A. fumigatus) NCPF 2140
# experimental.setup: Aspergillus fumigatus, A. fumigatus, Day 1; 27° C., one week; read-out: Minimum Inhibitory Concentration
measured.attribute: MIC (µg/mL)
Report only the number, with the unit µg/mL understood.

Examples with answers:
smiles_representation=CCCCCCCCCCCCCCCCn1c(C)cc(C)[n+]1C recorded_result=10
smiles_representation=CCCCCCCCCCCCn1ccc[n+]1C recorded_result=50

## Input For CCCCCCCCCCCCCCCCn1ccc[n+]1C , what is its reported MIC?
## Output 50

## Input // repeat for CCCCCCCCCCCC[n+]1c(C)cc(C)n1Cc1ccc(Cl)cc1.[Br-] and report
## Output 10

----------
# Test system: A. fumigatus
# assay.summary: Antifungal activity: Minimum Inhibitory Concentration
# Type: cell-based, Aspergillus fimigatus (A. fumigatus) NCPF 2140
# experimental.setup: Aspergillus fumigatus, A. fumigatus, Day 2; 27° C., one week; read-out: Minimum Inhibitory Concentration
measured.attribute: MIC (µg/mL)
Report only the number, with the unit µg/mL understood.

Examples with answers:
molecule="CCCCCCCCCCCCCC[n+]1c(C)cc(C)n1Cc1ccc([N+](=O)[O-])cc1.[Br-] [Example 6-D]" target_or_test_system="A. fumigatus" measured_attribute=MIC recorded_result=50
molecule="CCCCCCCCCCCCCCCCn1c(C)cc(C)[n+]1C [Example 2]" target_or_test_system="A. fumigatus" measured_attribute=MIC recorded_result=5

Attention now shifts to the item below.
## Input For C=CCn1c(C)cc(C)[n+]1CCCCCCCCCCCCCCCC.[Br-] [Example 7] , what is its reported MIC?
## Output 50

----------
# Test system: T. rubrum
# assay.summary: Antifungal activity: Minimum Inhibitory Concentration
# Assay type: cell-based, Trichophyton rubrum NCPF 197
# experimental.setup: Trichophyton rubrum, T. rubrum, Day 2; 27° C., one week; read-out: Minimum Inhibitory Concentration
This section presents compounds with their documented MIC values.
Report only the number, with the unit µg/mL understood.

smiles_representation=CCCCCCCCCCCC[n+]1c(C)cc(C)n1Cc1ccc(Cl)cc1Cl.[Br-] recorded_result=1
smiles_representation=CCCCCCCCCCCC[n+]1c(C)cc(C)n1Cc1ccc(Cl)cc1.[Br-] recorded_result=5

Attention now shifts to the item below.
## Input For CCCCCCCCCCCCCC[n+]1c(C)cc(C)n1Cc1ccc([N+](=O)[O-])cc1.[Br-] , what is its reported MIC?
## Output 10
